Biological target: ΔF508-CFTR (Homo sapiens, UniProt P13569, DEL508-508)
Construct: host or cells: CFBE41o-, doxycycline-inducible
Sequence (P13569 with tags, fused parts or gaps DEL508-508): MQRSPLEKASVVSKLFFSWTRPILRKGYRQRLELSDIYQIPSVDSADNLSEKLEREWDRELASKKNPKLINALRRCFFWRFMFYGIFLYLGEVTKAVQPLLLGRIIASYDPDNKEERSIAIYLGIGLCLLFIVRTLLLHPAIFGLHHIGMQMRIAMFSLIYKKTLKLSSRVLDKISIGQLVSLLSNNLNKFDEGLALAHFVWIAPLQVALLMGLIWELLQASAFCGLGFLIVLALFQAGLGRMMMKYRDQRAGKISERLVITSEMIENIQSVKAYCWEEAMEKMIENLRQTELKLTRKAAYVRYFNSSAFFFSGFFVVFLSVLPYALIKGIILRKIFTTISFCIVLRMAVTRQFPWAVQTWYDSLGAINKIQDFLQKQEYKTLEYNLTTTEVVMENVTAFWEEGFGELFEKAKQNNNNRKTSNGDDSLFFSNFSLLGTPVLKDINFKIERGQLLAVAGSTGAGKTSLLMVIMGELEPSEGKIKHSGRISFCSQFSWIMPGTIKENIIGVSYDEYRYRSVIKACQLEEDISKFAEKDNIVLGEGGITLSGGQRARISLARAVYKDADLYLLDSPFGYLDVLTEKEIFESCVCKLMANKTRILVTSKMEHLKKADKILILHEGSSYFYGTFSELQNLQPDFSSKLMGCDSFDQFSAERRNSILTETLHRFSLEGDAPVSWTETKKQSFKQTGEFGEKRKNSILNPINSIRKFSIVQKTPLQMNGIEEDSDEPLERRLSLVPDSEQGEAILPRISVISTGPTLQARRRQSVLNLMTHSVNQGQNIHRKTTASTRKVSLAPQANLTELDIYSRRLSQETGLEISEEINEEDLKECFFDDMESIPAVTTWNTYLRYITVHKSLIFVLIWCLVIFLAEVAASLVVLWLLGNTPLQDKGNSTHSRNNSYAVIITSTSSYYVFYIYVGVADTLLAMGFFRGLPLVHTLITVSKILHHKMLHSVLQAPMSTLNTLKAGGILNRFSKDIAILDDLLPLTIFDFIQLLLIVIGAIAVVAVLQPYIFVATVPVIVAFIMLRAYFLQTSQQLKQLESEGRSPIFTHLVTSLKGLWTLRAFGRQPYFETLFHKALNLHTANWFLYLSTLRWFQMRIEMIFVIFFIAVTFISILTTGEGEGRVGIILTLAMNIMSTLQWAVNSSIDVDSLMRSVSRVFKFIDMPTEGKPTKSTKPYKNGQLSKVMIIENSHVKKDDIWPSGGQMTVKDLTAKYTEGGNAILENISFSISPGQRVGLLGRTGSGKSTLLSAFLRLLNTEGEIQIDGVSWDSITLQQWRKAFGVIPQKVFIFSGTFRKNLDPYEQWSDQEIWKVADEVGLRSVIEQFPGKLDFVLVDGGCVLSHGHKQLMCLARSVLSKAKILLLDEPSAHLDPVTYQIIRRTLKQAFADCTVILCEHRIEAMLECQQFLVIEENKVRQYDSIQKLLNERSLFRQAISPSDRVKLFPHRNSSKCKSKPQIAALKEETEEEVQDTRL
Test: CFTR cell surface levels using HRP-tagged ΔF508-CFTR expressing CFBE cells, in the presence of a co-corrector
Assay type: cell-based
Conditions: HRP-tagged ΔF508-CFTR expressing CFBE cells, in the presence of 3 μM co-corrector
attribute measured: % Activation (%)
Give the value, in units of %, as a plain number.

QUERY: Can you look up the measured % Activation of O=C(O)c1cc(N2CCC(CN3CC4CC4C3)CC2)c2c(C3CCC3)nn(-c3ccccc3)c2n1 (stereo not shown) [compound 844] for me?
RESULT: 429.2

QUERY: Can you look up the measured % Activation of CC(C)c1nn(-c2ccc(F)cc2)c2nc(C(=O)O)cc(N3CCC(N(C)C4COC4)CC3)c12 [compound 751] for me?
RESULT: 400.2

QUERY: Can you look up the measured % Activation of COCCN1CCN(C2CCN(c3cc(C(=O)O)nc4c3c(C(C)C)nn4-c3ccc(F)cc3)CC2)CC1 [compound 746] for me?
RESULT: 418.4

QUERY: Can you look up the measured % Activation of Cc1nn(-c2ccccc2)c2nc(C(=O)O)cc(OCC3CCCC3(F)F)c12 (stereo not shown) [compound 389] for me?
RESULT: 280.6

QUERY: Can you look up the measured % Activation of Cc1nn(-c2ccccc2)c2nc(C(=O)O)cc(N3CC4(CCOC4)C3)c12 [compound 306] for me?
RESULT: 147.8

QUERY: Can you look up the measured % Activation of CC(C)N1CCCN(c2cc(C(=O)O)nc3c2c(C2CCC2)nn3-c2ccccc2)CC1 [compound 691] for me?
RESULT: 280.7

QUERY: Can you look up the measured % Activation of O=C(O)c1cc(OC[C@H](F)C2CCOCC2)c2c(C3CCC3)nn(-c3ccccc3)c2n1 [compound 434] for me?
RESULT: 342.8

QUERY: Can you look up the measured % Activation of CN(C)C[C@@H](F)C1CCN(c2cc(C(=O)O)nc3c2c(C2CCC2)nn3-c2ccccc2)CC1 [compound 456] for me?
RESULT: 414.5

QUERY: Can you look up the measured % Activation of COCC1CCN(c2cc(C(=O)O)nc3c2c(C2CCC2)nn3-c2ccnc(OC)c2)CC1 [compound 678] for me?
RESULT: 373.3

QUERY: Can you look up the measured % Activation of N#CC1CCN(c2ccc(-c3cc(C(=O)O)nc4c3c(C3CCC3)nn4-c3cccc(N4CCCC4)c3)cc2)CC1 [compound 247] for me?
RESULT: 569.07

QUERY: Can you look up the measured % Activation of O=C(O)c1cc(N2CC[C@H](O)[C@H](F)C2)c2c(C3CCC3)nn(-c3ccccc3)c2n1 [compound 509] for me?
RESULT: 344.6

QUERY: Can you look up the measured % Activation of Cc1nn(-c2ccccc2)c2nc(C(=O)O)cc(O[C@@H]3CCCN(C)C3)c12 [compound 343] for me?
RESULT: 104.7

QUERY: Can you look up the measured % Activation of CN1CCCN(C(=O)CCN2CCN(c3cc(C(=O)O)nc4c3c(C3CCC3)nn4-c3ccccc3)CC2)CC1 [compound 717] for me?
RESULT: 124.6

QUERY: Can you look up the measured % Activation of Cc1nn(-c2ccccc2)c2nc(C(=O)O)cc(-c3ccc(N4CC(C)(C)C4)cc3)c12 [compound 73] for me?
RESULT: 303.9

QUERY: Can you look up the measured % Activation of COCCN1CCC2(CC1)CCN(c1cc(C(=O)O)nc3c1c(C1CCC1)nn3-c1ccc(F)cc1)CC2 [compound 897] for me?
RESULT: 354.93

QUERY: Can you look up the measured % Activation of CC(C)c1nn(C2CCCCC2)c2nc(C(=O)O)cc(C3=CCN(C(=O)OC(C)(C)C)CC3)c12 [compound 371] for me?
RESULT: 283.6

QUERY: Can you look up the measured % Activation of Cc1cccc(-n2nc(C(C)C)c3c(-c4ccc(N5CCOCC5)cc4)cc(C(=O)O)nc32)c1 [compound 20] for me?
RESULT: 450.9

QUERY: Can you look up the measured % Activation of O=C(O)c1cc(N2CCC(C(F)(F)F)C2)c2c(C3CCC3)nn(-c3ccccc3)c2n1 (stereo not shown) [compound 442] for me?
RESULT: 321.95

QUERY: Can you look up the measured % Activation of O=C(O)c1cc(N2CC[C@@H](F)[C@H](O)C2)c2c(C3CCC3)nn(-c3ccccc3)c2n1 [compound 465] for me?
RESULT: 244.6

QUERY: Can you look up the measured % Activation of O=C(O)c1cc(OC2CCCCCC2)c2c(C3CCC3)nn(-c3ccccc3)c2n1 [compound 648] for me?
RESULT: 296.1

QUERY: Can you look up the measured % Activation of Cc1cccc(-n2nc(C(C)C)c3c(N4CCC5(CCOCC5)C4)cc(C(=O)O)nc32)c1 [compound 262] for me?
RESULT: 375.95

QUERY: Can you look up the measured % Activation of Cc1nn(-c2ccccc2)c2nc(C(=O)O)cc(N3CCN(C(=O)N4CCOCC4)CC3)c12 [compound 322] for me?
RESULT: 154.55

QUERY: Can you look up the measured % Activation of CC(=O)N1CCC2CN(c3cc(C(=O)O)nc4c3c(C(C)C)nn4-c3cccc(C)c3)CCC21 (stereo not shown) [compound 255] for me?
RESULT: 302.97

QUERY: Can you look up the measured % Activation of COC1CCN(C2CCN(c3cc(C(=O)O)nc4c3c(O)nn4-c3ccc(F)cc3)CC2)CC1 [compound 925] for me?
RESULT: 126.05

QUERY: Can you look up the measured % Activation of O=C(O)c1cc(N2CCC(N3CCOCC3)CC2)c2c(C3CCC3)nn(-c3ccc(F)c(F)c3)c2n1 [compound 907] for me?
RESULT: 483.65

QUERY: Can you look up the measured % Activation of COCCOCC1(F)CCN(c2cc(C(=O)O)nc3c2c(C(C)C)nn3-c2ccc(F)cc2)CC1 [compound 667] for me?
RESULT: 339.85

QUERY: Can you look up the measured % Activation of O=C(O)c1cc(N2CCC3(C2)OCCO3)c2c(C3CCC3)nn(-c3ccccc3)c2n1 [compound 713] for me?
RESULT: 243.5

QUERY: Can you look up the measured % Activation of O=C1CCC[C@H]2CN(c3cc(C(=O)O)nc4c3c(C3CCC3)nn4-c3ccccc3)C[C@H]2N1 [compound 505] for me?
RESULT: 118.3

QUERY: Can you look up the measured % Activation of COCC1CCN(c2cc(C(=O)O)nc3c2c(C2CCC2)nn3-c2ccc(F)cc2)CC1 [compound 657] for me?
RESULT: 543

QUERY: Can you look up the measured % Activation of CC(C)c1nn(-c2ccc(F)cc2)c2nc(C(=O)O)cc(N3CCC(C4CCN(C)CC4)CC3)c12 [compound 661] for me?
RESULT: 522.3

QUERY: Can you look up the measured % Activation of CC1(c2nn(-c3ccccc3)c3nc(C(=O)O)cc(-c4ccc(N5CCOCC5)cc4)c23)CC1 [compound 129] for me?
RESULT: 380
